# Test system: SN12C renal
# Assay: NCI tumour cell line growth inhibition, 48 h; in the data active means GI50 below about 0.43 µM; inactive means the rest
Write down one outcome, taken from active, inactive

For orientation, consider the following solved cases.
{"Compound": "COc1cc(NC(=O)c2cc(O)c(CC=C(C)C)c(O)c2)cc2c1O[C@]1(C)CC[C@@H](O)C(C)(C)[C@H]1C2", "Assigned Class": "inactive"}
{"Compound": "COc1cc[nH]c1/C=C1\\C(=O)Nc2ccccc21", "Assigned Class": "inactive"}
{"Compound": "CCC[CH2][Sn]1([CH2]CCC)[O]C(=O)C(C(C)C)N=Cc2ccccc2[O]1 (stereo not given)", "Assigned Class": "active"}

Query: Hi, sorry to bother you, what did the test record for COc1cc(OC)c(/C=C/C(=O)c2c(OC)cccc2OC)c(OC)c1 ?
Result: inactive

Query: Cool, now Cc1cc(C)c(C(=O)CC(=O)c2cccnc2)c(C)c1
Result: inactive

* * *

# Tested on: PC-3 prostate
# Assay: NCI tumour cell line growth inhibition, 48 h
Property Name: GI50

The following molecules have reported results that may help.
{"Molecule": "CCS(=O)(=O)c1ccc(OC)c(Nc2ncc(-c3cccc(C(C)=O)c3)o2)c1", "Property Name": "GI50", "Result": "> 25 µM"}
{"Molecule": "CCN(CC)CCN1CC(O)=C(c2nc(-c3ccc(Cl)cc3)cs2)C1=N", "Property Name": "GI50", "Result": "6.8 µM"}
{"Molecule": "COc1ccc(OC)c(/C=C/C(=O)N/N=C/c2ccc(Cl)cc2)c1", "Property Name": "GI50", "Result": "0.105 µM"}
{"Molecule": "O=C(CCl)Nc1ccc(Cl)cc1", "Property Name": "GI50", "Result": "7.36 µM"}
{"Molecule": "O=C(Nc1ccc(Cl)cc1)c1cc(-c2ccc(F)cc2)c2sc(=O)[nH]c2n1", "Property Name": "GI50", "Result": "0.65 µM"}

Record GI50 for all entries; do not skip any.
1. COc1cc(OC)c(/C=C/C(=O)c2c(OC)cccc2OC)c(OC)c1
2. CC1CN1CC(O)C(O)CN1CC1C (stereo not given)
3. CCOC(=O)Sc1ncnc2nc[nH]c12
4. CC(C)c1ccc(C(=O)Nc2sc3c(c2C(N)=O)CCC(=O)C3)cc1
5. Cc1cn2c(/C=C3/C(=O)N(C)c4ccccc43)c(C)nc2s1

Result:
1. 1.17 µM
2. 12.5 µM
3. 4.07 µM
4. 0.242 µM
5. 16.5 µM

* * *

# Test system: OVCAR-5 ovarian
# Assay: NCI tumour cell line growth inhibition, 48 h
Please respond with reported TGI for every item in the list.

Record TGI for all entries; do not skip any.
1. COc1ccc(C(C)c2cc3c(cc2OC)OCO3)cc1 (stereo not given)
2. CCOC(=O)Sc1ncnc2nc[nH]c12
3. CCOC(=O)NC(=O)c1cn(CCOCCOC(=O)NCCCCCCNC(=O)OCCOCCn2cc(C(=O)NC(=O)OCC)c(=O)[nH]c2=O)c(=O)[nH]c1=O
4. Cc1cn2c(/C=C3/C(=O)N(C)c4ccccc43)c(C)nc2s1
5. CSC1=N/C(=C\c2ccc(C)cc2)C(=O)N1

Result:
1: > 100 µM; 2: > 100 µM; 3: > 100 µM; 4: > 100 µM; 5: > 100 µM
